Data origin, for the record: the supplement of paper PMC7877785

method-summary: self-splicing fitness, log relative to wild type (ln ratio); higher = more splicing; Tetrahymena group I intron in knt gene, E. coli kanamycin selection, DiMSum; sequences stand for … in CUCUCU…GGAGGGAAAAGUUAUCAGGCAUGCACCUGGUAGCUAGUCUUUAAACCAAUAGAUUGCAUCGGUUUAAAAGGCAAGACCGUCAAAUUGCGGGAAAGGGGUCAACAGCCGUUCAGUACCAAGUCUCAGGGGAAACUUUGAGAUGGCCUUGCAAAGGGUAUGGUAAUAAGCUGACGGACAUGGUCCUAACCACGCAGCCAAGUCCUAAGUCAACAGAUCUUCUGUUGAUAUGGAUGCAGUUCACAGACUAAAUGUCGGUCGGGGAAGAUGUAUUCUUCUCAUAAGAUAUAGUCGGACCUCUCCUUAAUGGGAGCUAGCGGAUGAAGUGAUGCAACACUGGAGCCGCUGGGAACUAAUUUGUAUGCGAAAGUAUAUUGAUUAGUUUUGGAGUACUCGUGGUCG;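 also: selection with 25 µg/mL kanamycin versus none on LB agar overnight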
assay-conditions: 30 °C
measure: self-splicing fitness (ln)
Write no unit; give the number alone.

Need self-splicing fitness (ln), item UGAGAGCAAUAUUACGUGGG
-2.83

Which self-splicing fitness (ln) is listed for GGCUAGCAAUAUUACGCCAU ?
-2.23

Looking for the measured self-splicing fitness (ln) of ACUCAGCAAUAUUACGAAAG , can you help?
-1.78

Give the measured self-splicing fitness (ln) of UGCCAGCAAUAUUACGGUUA .
-0.355

What value of self-splicing fitness (ln) has been recorded for this entry: AAAUAGCAAUAUUACGCGCG
-0.988

Reported self-splicing fitness (ln), sequence ACGGAGCAAUAUUACGAGAU : ____
-3.66

# lookup: self-splicing fitness (ln) of CCUUAGCAAUAUUACGCUAG
-3.32

Given GCUAAGCAAUAUUACGUCCG , state its recorded self-splicing fitness (ln).
-1.53

Please report the recorded self-splicing fitness (ln) for AUGUAGCAAUAUUACGGAGG .
-3.57

What measured self-splicing fitness (ln) goes with GGCUAGCAAUAUUACGUCCA ?
-1.3

Entry CGAUAGCAAUAUUACGUCGU has what self-splicing fitness (ln)?
-4.24

Any idea what self-splicing fitness (ln) was measured for CCCAAGCAAUAUUACGAAGA ?
-3.32

Field request: self-splicing fitness (ln) | item: GCUAAGCAAUAUUACGCCAC
-1.43

Which value of self-splicing fitness (ln) has been reported for GUGUAGCAAUAUUACGCACG in the records?
-3.57

Could you share which self-splicing fitness (ln) value was measured for GGUGAGCAAUAUUACGCAGU ?
-2.13

What value of measured self-splicing fitness (ln) is listed for UCCUAGCAAUAUUACGAACA ?
-2.9

I would be grateful if you could share the reported self-splicing fitness (ln) for UAUUAGCAAUAUUACGGAGG .
-2.95
